# assayed_system: mfPRLR.mmh (monomeric macaca fascicularis PRLR)
# Sequence (as listed by the source): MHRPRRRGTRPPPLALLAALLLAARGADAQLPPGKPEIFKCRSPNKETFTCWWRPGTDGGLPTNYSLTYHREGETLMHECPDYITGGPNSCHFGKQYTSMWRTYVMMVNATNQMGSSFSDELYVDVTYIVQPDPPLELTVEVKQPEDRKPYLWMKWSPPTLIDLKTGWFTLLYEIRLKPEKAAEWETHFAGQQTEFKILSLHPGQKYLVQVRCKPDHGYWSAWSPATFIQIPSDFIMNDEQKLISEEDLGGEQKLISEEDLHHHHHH
# method: Surface plasmon resonance (Biacore T200), mAb-capture format
# Assay type: binding
# details: 37° C., antibody-capture format, analyte mfPRLR.mmh
readout: pKd
pKd is defined as minus the log10 of a concentration measured in mol/L.

// returns reported pKd for input H1H6967N: human IgG1 Fc form of H2M6967N; anti-PRLR; HCVR/LCVR SEQ ID NOs 354/362 (antibody, V domains shown, human IgG1 Fc) VH: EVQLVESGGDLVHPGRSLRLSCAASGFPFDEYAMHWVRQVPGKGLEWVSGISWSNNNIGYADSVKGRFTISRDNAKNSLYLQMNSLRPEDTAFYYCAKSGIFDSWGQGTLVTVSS VL: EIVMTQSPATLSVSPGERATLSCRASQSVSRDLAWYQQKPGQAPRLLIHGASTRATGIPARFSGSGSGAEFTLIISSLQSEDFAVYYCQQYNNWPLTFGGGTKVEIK
8.34

// returns reported pKd for input H1H6795P: anti-PRLR antibody, human IgG1 Fc; HCVR/LCVR SEQ ID NOs 162/170 (antibody, V domains shown, human IgG1 Fc) VH: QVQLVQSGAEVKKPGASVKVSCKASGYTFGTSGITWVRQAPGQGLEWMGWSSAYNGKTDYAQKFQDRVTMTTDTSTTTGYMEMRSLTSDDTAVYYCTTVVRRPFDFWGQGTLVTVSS VL: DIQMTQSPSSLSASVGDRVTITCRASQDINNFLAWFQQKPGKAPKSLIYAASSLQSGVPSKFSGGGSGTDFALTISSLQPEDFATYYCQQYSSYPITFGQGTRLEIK
8.21

// returns reported pKd for input H1H6976N: human IgG1 Fc form of H2M6976N; anti-PRLR; HCVR/LCVR SEQ ID NOs 386/394 (antibody, V domains shown, human IgG1 Fc) VH: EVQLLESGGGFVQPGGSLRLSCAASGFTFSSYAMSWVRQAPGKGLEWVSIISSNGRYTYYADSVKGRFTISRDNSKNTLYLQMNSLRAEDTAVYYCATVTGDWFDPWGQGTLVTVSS VL: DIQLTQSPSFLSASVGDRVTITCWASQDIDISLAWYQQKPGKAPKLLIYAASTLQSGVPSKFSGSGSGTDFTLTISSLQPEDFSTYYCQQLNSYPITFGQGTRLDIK
8.28

// returns reported pKd for input H1H6975N: human IgG1 Fc form of H2M6975N; anti-PRLR; HCVR/LCVR SEQ ID NOs 370/378 (antibody, V domains shown, human IgG1 Fc) VH: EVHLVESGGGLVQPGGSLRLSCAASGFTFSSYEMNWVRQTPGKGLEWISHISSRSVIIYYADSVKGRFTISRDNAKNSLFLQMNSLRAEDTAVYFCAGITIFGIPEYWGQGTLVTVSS VL: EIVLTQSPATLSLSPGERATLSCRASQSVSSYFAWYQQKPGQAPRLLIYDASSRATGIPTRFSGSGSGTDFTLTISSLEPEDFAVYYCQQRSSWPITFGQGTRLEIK
8.64
